molecular target: natural Fel d1 (cat (Felis domesticus)) (UniProt P30438); test: SPR, mAb captured, nFel d1 injected, 25 C
VALUE_KIND: Kd (pM)

| BINDER | VALUE_KIND | READOUT_UNITS | VALUE |
| --- | --- | --- | --- |
| H4H2607B (antibody, human IgG4, V domains shown) VH: EVQLVESGGGLVKPGGSLRLSCAASGFTFSDYYMNWIRQAPGKGLEWISYLSSSGSATYYADSVKGRFTISRDNAKNSLYLQMNSLRAEDTAVYYCARDGKYNTVAGDYWGQGTTVTVSS VL: DIQLTQSPSSLSASVGDRVTITCRASQGIRNDLGWYQQKPGKAPKRLIYAASSLQSGVPSRFSGSGSGTEFTLTISSLQPEDFATYYCLQHNSYPYTFGQGTKVEIKR | Kd | pM | 307 |
